Species on record: Rattus norvegicus
Assay: Log concentration to inhibit 5-HTP accumulation was determined in rat limbic system
Assay type: functional
Property Label: pED50
// response body must contain only the number

# compound CCCN(CCC)[C@H]1CCc2ccc3[nH]cc(C=O)c3c2C1 ; its pED50 = 6.94

# compound CCCN(CCC)[C@@H]1CCc2ccc3[nH]cc(C#N)c3c2C1 ; its pED50 = 7.03

# compound CCCN(CCC)C1CCc2ccc3[nH]cc(C=O)c3c2C1 (stereo unspecified) ; its pED50 = 6.95

# compound CCCN(CCC)[C@H]1CCc2ccc3[nH]cc(C#N)c3c2C1 ; its pED50 = 7.93

# compound CCCN(CCC)C1CCc2cc3c(C=O)c[nH]c3cc2C1 (stereo unspecified) ; its pED50 = 4.88

# compound CCCN(CCC)[C@@H]1CCc2ccc3[nH]cc(C=O)c3c2C1 ; its pED50 = 7.14
